pKd values by entry
# Assay target: T1, cynomolgus GITR (cyGITR), soluble analyte (cynomolgus)
# T1 construct: Soluble analyte in SPR; construct not described; also called cGITR
# Protocol summary: SPR (Biacore T200), 37 C; antibody captured on anti-human Fc chip, GITR as analyte; 1:1 Langmuir fit
# Experimental: The sensor chip preparation was performed at 25° C. with a running buffer of 10 mM HEPES, 150 mM NaCl, 0.05% (v/v) Tween-20, pH 7.4. […] Antibodies were captured from undiluted supernatants onto downstream flow cells (flow cells 2, 3 and 4) at a flow rate of 10 μL/min for 2 minutes. […] After the analyte injection, dissociation was monitored for 10 minutes followed by regeneration of all flow cells with three 1-minute injections of 75 mM Phosphoric Acid. […]
pKd: −log10 of the molar value.

h10H2 AM (antibody, V domains shown, Whole IgG captured on an anti-human Fc chip) VH: QVQLVQSGAEVKKPGSSVKVSCKASGGTFSRYWIEWVRQAPGQGLEWMGEILPGSGVTFENEKFKGRVTITADESTSTAYMELSSLRSEDTAVYYCARKGRYYAMDYWGQGTLVTVSS VL: EIVLTQSPGTLSLSPGERATLSCRASQSIGTSIHWYQQKPGQAPRLLIYYASESVSGIPDRFSGSGSGTDFTLTISRLEPEDFAVYYCQQTYSWPATFGQGTKVEIK has a reported pKd of < 7.00

Item: m10H2 (antibody, V domains shown, In ADCC it is called hIgG1; also called anti-human GITR antibody m10H2; A647 labeled m10H2) VH: QVQLQQSGAELMKPGASVKISCTATGYTISRYWIEWVKQRPGHGLEWIGEILPGSGVTNYNEKFKGKATFTADTSSNTAYMQLSSLTSEDSAVYSCARKGTYYAMDYWGQGTSVTVSS VL: DILLTQSPAILSVSPGERVSFSCRASQSIGTSIHWYQQRTNGSPRLLIKYASESVSGIPSRFSGSGSGTDFTLFINSVESEDIADYYCQQTYSWPATFGAGTKLELK | pKd: < 7.00

Entry h3G7 LF (antibody, V domains shown, Whole IgG captured on an anti-human Fc chip) VH: QVQLVQSGAEVKKPGASVKVSCKASGYTFTGATMNWVRQAPGQGLEWMGLINPYTGGIRYNQKFKGRVTMTRDTSTSTVYMELSSLRSEDTAVYYCARIGGYYDTMDYWGQGTLVTVSS VL: DIQMTQSPSSLSASVGDRVTITCRASESVEPRGINFLNWYQQKPGKAPKLLIYAASQASKGVPSRFSGSGSGTDFTLTISSLQPEDFATYYCQQALELPWTFGGGTKVEIK , pKd reported as 7.16
